Molecular target: T1, human VEGF (hVEGF) (human, UniProt P15692 181-395)
T1 construct: also called VEGF-A
T1 sequence: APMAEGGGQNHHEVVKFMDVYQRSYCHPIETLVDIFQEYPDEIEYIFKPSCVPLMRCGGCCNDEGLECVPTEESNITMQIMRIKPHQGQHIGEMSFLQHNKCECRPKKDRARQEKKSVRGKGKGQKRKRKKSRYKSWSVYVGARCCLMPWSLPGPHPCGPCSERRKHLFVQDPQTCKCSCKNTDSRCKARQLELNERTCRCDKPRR
Experiment: SPR
Answer each item with its documented kon.

Using the record for G6.31 HC-A40E, HC-T57E (Fab, V domains shown, Fab) VH: EVQLVESGGGLVQPGGSLRLSCAASGFTISDYWIHWVRQEPGKGLEWVAGITPAGGYEYYADSVKGRFTISADTSKNTAYLQMNSLRAEDTAVYYCARFVFFLPYAMDYWGQGTLVTVSS VL: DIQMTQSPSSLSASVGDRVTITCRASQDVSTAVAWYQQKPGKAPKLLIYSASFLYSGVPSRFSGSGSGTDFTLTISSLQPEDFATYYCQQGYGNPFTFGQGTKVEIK , report its kon.
2.96e+06 M⁻¹ s⁻¹

Also G6.31 HC-A40E, HC-T57E, LC-F83A, LC-N94A, LC-T22D (Fab, name in Kabat numbering, V domains shown, Fab) VH: EVQLVESGGGLVQPGGSLRLSCAASGFTISDYWIHWVRQEPGKGLEWVAGITPAGGYEYYADSVKGRFTISADTSKNTAYLQMNSLRAEDTAVYYCARFVFFLPYAMDYWGQGTLVTVSS VL: DIQMTQSPSSLSASVGDRVTIDCRASQDVSTAVAWYQQKPGKAPKLLIYSASFLYSGVPSRFSGSGSGTDFTLTISSLQPEDAATYYCQQGYGAPFTFGQGTKVEIK , if possible.
1.2e+06 M⁻¹ s⁻¹

Also G6.31 LC-F83A, LC-N94A, LC-T22D (Fab, name in Kabat numbering, V domains shown, Fab) VH: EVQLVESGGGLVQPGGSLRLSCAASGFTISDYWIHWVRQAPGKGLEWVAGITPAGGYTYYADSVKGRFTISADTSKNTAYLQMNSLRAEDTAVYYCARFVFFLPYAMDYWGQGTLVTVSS VL: DIQMTQSPSSLSASVGDRVTIDCRASQDVSTAVAWYQQKPGKAPKLLIYSASFLYSGVPSRFSGSGSGTDFTLTISSLQPEDAATYYCQQGYGAPFTFGQGTKVEIK , if possible.
1.33e+06 M⁻¹ s⁻¹

Also G6.31 LC-N94A.LC-F83A (Fab, V domains shown, Fab; also called LC-F83A, LC-N94A; LCcombo5) VH: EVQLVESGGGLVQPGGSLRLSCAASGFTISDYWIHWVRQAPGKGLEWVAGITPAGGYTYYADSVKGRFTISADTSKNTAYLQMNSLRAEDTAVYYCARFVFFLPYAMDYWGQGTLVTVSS VL: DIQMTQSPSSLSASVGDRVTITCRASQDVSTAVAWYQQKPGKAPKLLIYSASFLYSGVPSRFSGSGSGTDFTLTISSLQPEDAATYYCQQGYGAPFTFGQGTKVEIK , if possible.
648000 M⁻¹ s⁻¹
